Exercise: state measured IC50 for each of the molecules provided.
Species on record: Canis familiaris
protocol-text: inhibitory concentration against auto-oxidative lipid peroxidation in canine brain homogenate
Please state the figure in µM; there is no need to write the unit.

Request: Would you kindly share the measured IC50 for Oc1ccc(NCC(O)CN2CCN(CCCC(c3ccc(F)cc3)c3ccc(F)cc3)CC2)cc1 (stereo unspecified) ?
Response: 0.32

Request: Would you kindly share the measured IC50 for OC(CNc1ccc(Cl)c(Cl)c1)CN1CCN(CCCC(c2ccc(F)cc2)c2ccc(F)cc2)CC1 (stereo unspecified) ?
Response: 23

Request: Would you kindly share the measured IC50 for CC(C)(C)c1cc(NCC(O)CN2CCN(CCCC(c3ccc(F)cc3)c3ccc(F)cc3)CC2)cc(C(C)(C)C)c1O (stereo unspecified) ?
Response: 2.8

Request: Would you kindly share the measured IC50 for COc1cc(NCC(O)CN2CCN(CCCC(c3ccc(F)cc3)c3ccc(F)cc3)CC2)cc(OC)c1OC (stereo unspecified) ?
Response: 1.4

Request: Would you kindly share the measured IC50 for Cc1c(C)c2c(c(C)c1O)CC[C@@](C)(CCC[C@H](C)CCC[C@H](C)CCCC(C)C)O2 [ALPHA-TOCOPHEROL] ?
Response: 1.5

Request: Would you kindly share the measured IC50 for O=[N+]([O-])c1ccc(NCC(O)CN2CCN(CCCC(c3ccc(F)cc3)c3ccc(F)cc3)CC2)cc1 (stereo unspecified) ?
Response: 182

Request: Would you kindly share the measured IC50 for OC(CNc1ccccc1)CN1CCN(CC(c2ccc(F)cc2)c2ccc(F)cc2)CC1 (stereo unspecified) ?
Response: 11

Request: Would you kindly share the measured IC50 for CN(C)c1ccc(NCC(O)CN2CCN(CCCC(c3ccc(F)cc3)c3ccc(F)cc3)CC2)cc1 (stereo unspecified) ?
Response: 2.2

Request: Would you kindly share the measured IC50 for OC(CNc1ccccc1)CN1CCN(CCCC(c2ccc(F)cc2)c2ccc(F)cc2)CC1 (stereo unspecified) ?
Response: 6.5

Request: Would you kindly share the measured IC50 for Cc1ccc(NCC(O)CN2CCN(CCCC(c3ccc(F)cc3)c3ccc(F)cc3)CC2)cc1 (stereo unspecified) ?
Response: 6.1

Request: Would you kindly share the measured IC50 for OC(CNc1ccccc1)CN1CCN(CCC(c2ccc(F)cc2)c2ccc(F)cc2)CC1 (stereo unspecified) ?
Response: 11

Request: Would you kindly share the measured IC50 for OC(CNc1ccccc1)CN1CCN(CCCCC(c2ccc(F)cc2)c2ccc(F)cc2)CC1 (stereo unspecified) ?
Response: 8.3

Request: Would you kindly share the measured IC50 for COc1ccc(NCC(O)CN2CCN(CCCC(c3ccc(F)cc3)c3ccc(F)cc3)CC2)cc1 (stereo unspecified) ?
Response: 1.6

Request: Would you kindly share the measured IC50 for OC(CNc1ccccc1)CN1CCN(C(c2ccc(F)cc2)c2ccc(F)cc2)CC1 (stereo unspecified) ?
Response: 6.9

Request: Would you kindly share the measured IC50 for OC(CNc1ccc(Cl)cc1)CN1CCN(CCCC(c2ccc(F)cc2)c2ccc(F)cc2)CC1 (stereo unspecified) ?
Response: 8.5

Request: Would you kindly share the measured IC50 for Nc1ccc(NCC(O)CN2CCN(CCCC(c3ccc(F)cc3)c3ccc(F)cc3)CC2)cc1 (stereo unspecified) ?
Response: 2.7
